From: PubChem BioAssay

TEST PROTOCOL: rescue of polyQ-huntingtin neuronal dysfunction in worms, whole organism, C. elegans mechanosensory neurons, N-terminal huntingtin (AID 1599)
MEASUREMENT SETUP: touch response, stronger effect = higher value
Potency and affinity values are given separately.
Please use yes (1) whenever rescue above control is not below -0.2, and no (0) whenever it is.

Worked examples, 6 molecules total:
- O=c1[nH]c2ccccc2n1C1CCN(CCCC(c2ccc(F)cc2)c2ccc(F)cc2)CC1: yes (1)
- C=C(C)[C@@H]1[C@H]2OC(=O)[C@@H]1[C@]1(O)C[C@H]3O[C@]34C(=O)O[C@H]2[C@]14C: yes (1)
- Clc1ccc(COC(Cn2ccnc2)c2ccc(Cl)cc2Cl)c(Cl)c1 (stereo not given): yes (1)
- NCCC(O)C(=O)N[C@@H]1C[C@H](N)[C@@H](O[C@H]2O[C@H](CN)[C@@H](O)[C@H](O)[C@H]2N)[C@H](OC2O[C@H](CO)[C@H](O)[C@H]2O)[C@H]1O (stereo not given in full): yes (1)
- CC1[C@H](C)OC(=O)CC(O)CC(O)CC(O)CCC(O)C(O)C[C@]2(O)CC(O)C(C(=O)O)C(CC(OC3O[C@H](C)[C@@H](O)[C@H](N)[C@@H]3O)/C=C/C=C/C=C/C=C/CC/C=C/C=C/[C@H](C)[C@H]1O)O2 (stereo not given in full): yes (1)
- O=P1(N(CCCl)CCCl)NCCCO1 (stereo not given): no (0)

Req: Assess whether reported rescue above control for O=C1CCO1 sits at -0.2 or higher.
Resp: yes (1)

Req: Assess whether reported rescue above control for CCCCCc1cc(O)c2c(c1)OC(C)(C)C1CCC(C)=CC21 (stereo not given) sits at -0.2 or higher.
Resp: yes (1)

Req: Assess whether reported rescue above control for OC1CCCCC1N1CCC(c2ccccc2)CC1 (stereo not given) sits at -0.2 or higher.
Resp: yes (1)

Req: Assess whether reported rescue above control for O=C1CC2OCC=C3CN4CC[C@]56c7ccccc7N1C5[C@H]2[C@H]3CC46 (stereo not given in full) sits at -0.2 or higher.
Resp: no (0)

Req: Assess whether reported rescue above control for FC(F)(F)c1cccc(N2CCNCC2)c1 sits at -0.2 or higher.
Resp: yes (1)

Req: Assess whether reported rescue above control for C[C@]12CCC3C(CC[C@]4(O)C[C@@H](O)CC[C@]34C=O)[C@@]1(O)CCC2C1=CC(=O)OC1 (stereo not given in full) sits at -0.2 or higher.
Resp: yes (1)

Req: Assess whether reported rescue above control for CC[C@@H]1/C=C/C=C/C[C@H](C)[C@@H](O)[C@](C)(O)C(=O)[C@H](C)[C@@H](O)[C@H](C)C(=O)[C@H](C)[C@@H](O)[C@H](C)/C=C/C(=O)O[C@H]2[C@@H](C)[C@@H](CC1)O[C@@]1(CC[C@@H](C)[C@@H](C[C@H](C)O)O1)[C@@H]2C sits at -0.2 or higher.
Resp: no (0)

Req: Assess whether reported rescue above control for O=C1Nc2ccc(Cl)cc2C(c2ccccc2Cl)=NC1O (stereo not given) sits at -0.2 or higher.
Resp: no (0)

Req: Assess whether reported rescue above control for CCCC(C)C1(CC)C(=O)NC(=O)NC1=O (stereo not given) sits at -0.2 or higher.
Resp: yes (1)

Req: Assess whether reported rescue above control for CCCC(C)(COC(N)=O)COC(=O)NC(C)C (stereo not given) sits at -0.2 or higher.
Resp: yes (1)

Req: Assess whether reported rescue above control for [N-]=[N+]=CC(=O)OCC(N)C(=O)O (stereo not given) sits at -0.2 or higher.
Resp: yes (1)

Req: Assess whether reported rescue above control for NCCc1c[nH]c2ccccc12 sits at -0.2 or higher.
Resp: no (0)

Req: Assess whether reported rescue above control for CC[C@@]1(O)C[C@H](O[C@H]2C[C@H](N(C)C)[C@H](O)[C@H](C)O2)c2c(cc3c(c2O)C(=O)c2c(O)cccc2C3=O)[C@H]1C(=O)OC sits at -0.2 or higher.
Resp: yes (1)

Req: Assess whether reported rescue above control for C=CCC1(CC(C)C)C(=O)NC(=O)NC1=O sits at -0.2 or higher.
Resp: yes (1)

Req: Assess whether reported rescue above control for COc1ccc2c3c1O[C@H]1[C@@H](O)C=CC4[C@@H](C2)N(C)CC[C@@]341 (stereo not given in full) sits at -0.2 or higher.
Resp: yes (1)
